test system: Vero E6; assay: cell viability relative to DMSO; higher = less toxic; settings: 72 h; 100 nM
Just a reminder that ties go to 0 (no): only cell viability strictly below 90% counts as 1 (yes).

Use these answered entries as a reference point.
COMPOUND | LABEL VALUE
CC(C)C[C@H](NC(=O)CNC(=O)c1cc(Cl)ccc1Cl)B1OC(=O)C(CC(=O)O)(CC(=O)O)O1 | 1 (yes)
O=C(O)CCCN1C(=O)c2cccc3cccc(c23)C1=O | 0 (no)
O=S(=O)(O)c1ccc(-c2c3nc(c(-c4ccc(S(=O)(=O)O)cc4)c4ccc([nH]4)c(-c4ccc(S(=O)(=O)O)cc4)c4nc(c(-c5ccc(S(=O)(=O)O)cc5)c5ccc2[nH]5)C=C4)C=C3)cc1 | 0 (no)
Cc1ccc(S(=O)(=O)Cc2nc(-c3ccc(C(=O)NCc4cccnc4)cc3)oc2C)cc1 | 1 (yes)
CC(C)CNc1ccnc(NCc2csc(-c3ccccc3)n2)n1 | 0 (no)

I wonder whether CC(C)C(N)=O [isobutyramide] has cell viability below 90%. Can you tell?
0 (no)

I wonder whether "COc1ccc2cc3[n+](cc2c1OC)CCc1cc2c(cc1-3)OCO2" has cell viability below 90%. Can you tell?
0 (no)

I wonder whether "COc1ccccc1N1CCN(CCCNc2cc(=O)n(C)c(=O)n2C)CC1" has cell viability below 90%. Can you tell?
0 (no)
